# System: MDA-MB-468 breast
# method_notes: NCI-60 one-dose screen, 48 h (100 = growth as untreated, 0 = no growth, -100 = all killed)
# conditions_used: 10 µM unless noted
The panel holds about 83,000 compounds, 20% with a hit somewhere; the sample as a whole holds those more often.
Below, each entry is listed alongside its reported growth.
Express it in %; write the number only.

CCN(CC)CC#CCOC(=O)[C@]1(C)CCC[C@@]2(C)[C@H]1CC(C=O)=C1C=C(C(C)C)CC[C@@H]12	41.5
COc1cc(OC)cc(C(=O)Nc2sc3c(c2C(N)=O)CCC(=O)C3)c1	37.1
CCOC(=O)c1cc2c(=O)oc3ccccc3c2oc1=O	88.2
O=C(CI)NC1Oc2ccccc2-c2oc(=O)c(-c3ccccc3)cc21 (stereo not given)	-42.3
O=C(CN1C(=O)/C(=C/c2ccc(Cl)cc2)SC1=S)NCCCN1CCOCC1	94.3
CCOC(=O)Nc1ccc2c(c1)/C(=N\NC(=S)NC)c1ccccc1-2	86.8
O=C1Nc2ccc(Br)cc2C12CC(c1ccccc1)=NN2 (stereo not given)	48.6
O=c1oc2ccc(F)cc2c(=O)n1-c1ccc(I)cc1F	-1.22

Which growth is reported for this molecule? CCOC(=O)N[C@H]1CCc2cc(OC)c(OC)c(OC)c2-c2ccc(SC)c(=O)cc21
-36.8

Which growth is reported for this molecule? Cc1ccc(-c2cn3cc([N+](=O)[O-])ccc3n2)cc1
56.3

----------
# Tested on: MDA-MB-468 breast
# method_notes: NCI-60 one-dose screen, 48 h (100 = growth as untreated, 0 = no growth, -100 = all killed)
# conditions_used: 10 µM unless noted
The panel holds about 83,000 compounds, 20% with a hit somewhere; the sample as a whole holds those more often.
Rule: Condition met for growth not less than 70%, Condition not met for anything less.

COc1ccc(/C(N)=N/C(N)=N/c2nc3ccccc3s2)cc1	Condition not met
CN1C(=O)N(C)C2Nn3c(s/c(=C\c4ccccc4)c3=O)=NC21 (stereo unspecified)	Condition met
Nc1cc(C(=O)N/N=C\c2ccc(OC(F)F)c(OC3CCCC3)c2)nn1CC(O)c1ccccc1 (stereo unspecified)	Condition met
C=CCOc1ccc(/C(Cl)=N/N=C(\Cl)c2cc(OC)c(OC)c(OC)c2)cc1	Condition not met

Could you now consider this next compound?
Check this compound for growth at or above 70%: COc1cc(NCCC2CCCCN2)c2ncccc2c1OC (stereo unspecified)
Condition met

----------
Below, each entry is listed alongside its reported growth.
# System: OVCAR-8 ovarian
# method_notes: NCI-60 one-dose screen, 48 h (100 = growth as untreated, 0 = no growth, -100 = all killed)
# conditions_used: 10 µM
The panel holds about 83,000 compounds, 20% with a hit somewhere; the sample as a whole holds those more often.
Express it in %; write the number only.

These solved cases illustrate the format of a correct answer.
O=C1S/C(=C\c2ccc([N+](=O)[O-])cc2)C(=O)N1CCN1CCCCC1	105
CC1(C)CC[C@]2(C(=O)O)CC[C@]3(C)C(=CCC4[C@@]5(C)C[C@@H](O)[C@@H]6OC(c7cccc(F)c7)OC[C@@]6(C)C5CC[C@]43C)C2C1 (stereo partly drawn)	31.7
COC(=O)CNC(=O)COc1c(OC)c(OC)cc2oc(-c3cccc(C(=O)Nc4ccc(Cl)cc4)c3)cc(=O)c12	-69

# returns recorded growth (system: OVCAR-8 ovarian) for COc1cccc(C(=O)CSc2nc(-c3ccc(OCc4ccccc4)c(OC)c3)c(C#N)c(=O)[nH]2)c1
105

# returns recorded growth (system: OVCAR-8 ovarian) for COc1cc2oc(-c3cccc(C(=O)Nc4ccc(Cl)cc4)c3)cc(=O)c2c(OCCNC(=O)[C@@H](N)CO)c1OC
26.3

# returns recorded growth (system: OVCAR-8 ovarian) for CCOC(=O)C1=C(N)N(c2ccc(C)cc2)C2=C(C(=O)CC(C)(C)C2)C1c1ccccc1Br (stereo not drawn)
90.1

----------
# Test system: MDA-MB-468 breast
# method_notes: NCI-60 one-dose screen, 48 h (100 = growth as untreated, 0 = no growth, -100 = all killed)
# conditions_used: 10 µM unless noted
# Experimental: Growth inhibition of the MDA-MB-468 human Breast tumor cell line is measured as a screen for anti-cancer activity. Cells are grown in 96 well plates and exposed to the test compound for 48 hours. Compounds are tested at a single concentration, which is 10^-5 M for most compounds. The reported endpoint is percent growth (GI% or GIPRCNT), where numbers from 0 - 100% represent growth inhibition, and numbers from -100% - 0 represent cell death. […]
The panel holds about 83,000 compounds, 20% with a hit somewhere; the sample as a whole holds those more often.
The threshold is 90%. Values of growth beneath it are tagged t; values meeting or exceeding it are tagged f.

NC1CCC(Nc2nc(NCc3ccc(-c4ccccc4O)nc3)c3ncn(C4CCCC4)c3n2)CC1 (stereo not given)	t
Cc1ccc(-c2nc(C#N)c(S(=O)(=O)n3nc(C)cc3N)o2)cc1	t
CCCCCCCC[C@@H]1N[C@@H](C(=O)OC)Cc2c1[nH]c1ccccc21	f
O=C(O)/C=C/C(=O)c1ccc(Cl)cc1	f

Could you now consider this next molecule?
I wonder whether O=C(NC(CSSCC(NC(=O)c1ccccc1)C(=O)O)C(=O)O)c1ccccc1 (stereo not given) has growth below 90%. Can you tell?
f

----------
# System: MDA-MB-468 breast
# method_notes: NCI-60 one-dose screen, 48 h
# conditions_used: 10 µM unless noted
This is part of a sample that, as a whole, favours compounds with a hit. Of some 83,000 tested, about 20% had one in any assay. The source made the active and inactive calls. Rule for the calls: active = growth percent below 10; inactive = the rest.
Your answer must be one of the following: active, inactive

Solved entries:
c1c2c(cc3c1OCO3)Cc1cc3c(cc1Cc1cc4c(cc1C2)OCO4)OCO3	inactive
CN1CCCCC1CCN1c2ccccc2Sc2ccc(Cl)cc21 (stereo not drawn)	inactive
CC[C@@H]1NC(=O)[C@H]([C@H](O)[C@H](C)C/C=C/c2ccc(CN3C(=O)CCCC3=O)cc2)N(C)C(=O)[C@H](C(C)C)N(C)C(=O)[C@H](CC(C)C)N(C)C(=O)[C@H](CC(C)C)N(C)C(=O)[C@@H](C)NC(=O)[C@H](C)NC(=O)[C@H](CC(C)C)N(C)C(=O)[C@H](C(C)C)NC(=O)[C@H](CC(C)C)N(C)C(=O)CN(C)C1=O	inactive
c1coc(-c2c3ccc(=[N+]4CCCCC4)cc-3oc3cc(N4CCCCC4)ccc23)c1	active
S=c1[nH]nc2sc3ccccc3n12	inactive
O=c1c2c(c3ccccc3n1-c1ccccc1)NC(=S)NC2c1ccccc1 (stereo not drawn)	inactive
FC(F)(F)c1ccc2c(c1)Sc1ccccc1N2	inactive

Assay outcome for CN([O-])c1nc(N(C)[O-])nc(N2CCOCC2)n1.CN([O-])c1nc(N(C)[OH2+])nc(N2CCOCC2)n1.[Fe+3] : what was it?
active

----------
Below, each entry is listed alongside its reported growth.
# Test system: MDA-MB-468 breast
# method_notes: NCI-60 one-dose screen, 48 h (100 = growth as untreated, 0 = no growth, -100 = all killed)
# conditions_used: 10 µM unless noted
The panel holds about 83,000 compounds, 20% with a hit somewhere; the sample as a whole holds those more often. Active and inactive are the calls of the source. The calls were made as follows: active = growth percent below 10; inactive = the rest.

These solved cases illustrate the format of a correct answer.
COC(CC(F)F)c1cn(S(=O)(=O)c2ccc(C)cc2)c2ccccc12 (stereo not given)	8.95% (active)
CCOC(=O)Nc1ccc(C(=O)/C=C/c2ccccc2)cc1	94% (inactive)
CC(=O)OCCOc1cc(Cl)c(Cl)cc1Cl	93.9% (inactive)

Which growth is reported for this compound? O=C1Nc2ccccc2/C1=C/c1cccs1
-20.2% (active)

Which growth is reported for this compound? Cc1ccc(/C=C(/C#N)n2nnc3cccc(F)c32)cc1
-16.1% (active)

Which growth is reported for this compound? CCOC(=O)c1c2c(c(C)n1Cc1ccccc1)-c1nc(N)ncc1CC2
100% (inactive)

----------
# Test system: MDA-MB-468 breast
# method_notes: NCI-60 one-dose screen, 48 h
# conditions_used: 10 µM unless noted
Compounds without any hit were thinned out: in the full panel of roughly 83,000, 20% have a hit. The source made the active and inactive calls. The calls were made as follows: active = growth percent below 10; inactive = the rest.
Your answer must be one of the following: active, inactive

Solved entries:
COc1ccc(/C(C)=N/NC(=O)CSc2nc3ccccc3c(=O)n2CCc2ccc(S(N)(=O)=O)cc2)cc1	inactive
CN1CCN(C2=Nc3ccccc3Oc3ccc(Cl)cc32)CC1	inactive
Cn1c(=O)c2[nH]c(C3CC=CCC3)nc2n(C)c1=O (stereo unspecified)	inactive
CCN1C(=O)N(CC)C2C1NN=c1s/c(=C\c3ccc[nH]3)c(=O)n12 (stereo unspecified)	active

Assay outcome for CC1(C)NC(=S)NC1=O : what was it?
inactive

Assay outcome for COc1cc2ncnc(Nc3ccc(O)cc3)c2cc1OC : what was it?
inactive

Assay outcome for CCN1C(=O)N(CC)C2SC(N/N=C/c3ccc(F)cc3)=NC21 (stereo unspecified) : what was it?
inactive

Assay outcome for OCCn1cc(-c2nc(-c3c[nH]c4ncccc34)cs2)c2cc(F)ccc21 : what was it?
active

Assay outcome for C=CCNc1ccc2c3c(cccc13)C(=O)N(CC=C)C2=O : what was it?
inactive

Assay outcome for CC(C)C[C@@H](NC(=O)[C@@H](Cc1ccccc1)NC(=O)c1cnccn1)B1O[C@H]2[C@H](O)[C@@H](C(=O)NCCCC[C@@H]3NC(=O)[C@@H](Cc4ccccc4)NC(=O)[C@H](CC(=O)O)NC(=O)CNC(=O)[C@H](CCCN=C(N)N)NC3=O)O[C@@H](CN)[C@H]2O1 : what was it?
active

Assay outcome for O=C(CCCCCC/C=C\c1csc(Br)n1)NO : what was it?
inactive

Assay outcome for CC1(C)CCC[C@]23C(=O)O[C@](O)(C(=O)C4=C[C@@](C)(/C=C/CCCc5ccc6ccc7cccc8ccc5c6c78)CC[C@@]42O)[C@@H]13 : what was it?
active

Assay outcome for Cn1c(=O)n(C)c2cc(CNCCNc3ccnc4cc(Cl)ccc34)ccc21 : what was it?
inactive

Assay outcome for OC(c1ccccc1)c1ccccn1 (stereo unspecified) : what was it?
inactive
